SYSTEM: HLA-A*02:01 (Homo sapiens, UniProt P04439, D140Y/D185E/D98H/E176V/E277Q/G131W/G231S/I119V/I121R/I166T/I218V/L300P/L318F/N151K/N90K/P208A/P217A/Q86G/Q94H/R138H/R169H/T345S)
TEST NAME: MHC binding assay (UV-ligand exchange, anti-β2m ELISA, peptide exchange yield)
CONDITION LABEL: binding to HLA-A*02:01
OBSERVED PROPERTY: Peptide exchange (MHC class I binding score, peptide exchange yield)

246 (LLWEVVSQL; listed as Homo sapiens) [compound 246]    “+++” (>50 = +++)
39 (SVAPNLPAV; listed as Homo sapiens) [compound 39]    “+++” (>50 = +++)
604 (SILDRDDIFV; listed as Homo sapiens) [compound 604]    “+++” (>50 = +++)
71 (GILARIASV; listed as Homo sapiens) [compound 71]    “+++” (>50 = +++)

---

SYSTEM: HLA-A*02:01 (Homo sapiens, UniProt P04439, D140Y/D185E/D98H/E176V/E277Q/G131W/G231S/I119V/I121R/I166T/I218V/L300P/L318F/N151K/N90K/P208A/P217A/Q86G/Q94H/R138H/R169H/T345S)
TEST NAME: MHC binding assay (UV-ligand exchange, anti-β2m ELISA, peptide exchange yield)
CONDITION LABEL: binding to HLA-A*02:01
OBSERVED PROPERTY: Peptide exchange (MHC class I binding score, peptide exchange yield)

587 (VMNDRLYAI; listed as Homo sapiens) [compound 587]    “+++” (>50 = +++)
144 (YIMEPSIFNTL; listed as Homo sapiens) [compound 144]    “+++” (>50 = +++)
324 (FLYDEIEAEV; listed as Homo sapiens) [compound 324]    “+++” (>50 = +++)

---

SYSTEM: HLA-A*02:01 (Homo sapiens, UniProt P04439, D140Y/D185E/D98H/E176V/E277Q/G131W/G231S/I119V/I121R/I166T/I218V/L300P/L318F/N151K/N90K/P208A/P217A/Q86G/Q94H/R138H/R169H/T345S)
TEST NAME: MHC binding assay (UV-ligand exchange, anti-β2m ELISA, peptide exchange yield)
CONDITION LABEL: binding to HLA-A*02:01
OBSERVED PROPERTY: Peptide exchange (MHC class I binding score, peptide exchange yield)

Example entries and their recorded answers appear below.
196 (YLYSVEIKL; listed as Homo sapiens) [compound 196]    “++++” (>75% = ++++)
318 (GLINTGVLSV; listed as Homo sapiens) [compound 318]    “++” (>20% = ++)
395 (ALALGGIAVV; listed as Homo sapiens) [compound 395]    “++++” (>75% = ++++)
9 (GAAKDLPGV; listed as Homo sapiens) [compound 9]    “++” (>20% = ++)

For 159 (GLVGNPLPSV; listed as Homo sapiens) [compound 159] , write its Peptide exchange (MHC class I binding score, peptide exchange yield). “++++” (>75% = ++++)

---

SYSTEM: HLA-A*02:01 (Homo sapiens, UniProt P04439, D140Y/D185E/D98H/E176V/E277Q/G131W/G231S/I119V/I121R/I166T/I218V/L300P/L318F/N151K/N90K/P208A/P217A/Q86G/Q94H/R138H/R169H/T345S)
TEST NAME: MHC binding assay (UV-ligand exchange, anti-β2m ELISA, peptide exchange yield)
CONDITION LABEL: binding to HLA-A*02:01
Source text: Candidate peptides for T cell based therapies according to the present invention were further tested for their MHC binding capacity (affinity). The individual peptide-MHC complexes were produced by UV-ligand exchange, where a UV-sensitive peptide is cleaved upon UV-irradiation, and exchanged with the peptide of interest as analyzed. Only peptide candidates that can effectively bind and stabilize the peptide-receptive MHC molecules prevent dissociation of the MHC complexes. […]
OBSERVED PROPERTY: Peptide exchange (MHC class I binding score, peptide exchange yield)

Example entries and their recorded answers appear below.
5 (HLTEVYPEL; listed as Homo sapiens) [compound 5]    “+++” (>50 = +++)
622 (RLLGEEVVRVLQA; listed as Homo sapiens) [compound 622]    “+++” (>50 = +++)
300 (ALLGQTFSL; listed as Homo sapiens) [compound 300]    “+++” (>50 = +++)
186 (TLFFQQNAL; listed as Homo sapiens) [compound 186]    “++” (>20% = ++)

For 580 (LLMENAERV; listed as Homo sapiens) [compound 580] , write its Peptide exchange (MHC class I binding score, peptide exchange yield). “++” (>20% = ++)

For 296 (FMEGAIIYV; listed as Homo sapiens) [compound 296] , write its Peptide exchange (MHC class I binding score, peptide exchange yield). “+++” (>50 = +++)

For 357 (SMHDLVLQV; listed as Homo sapiens) [compound 357] , write its Peptide exchange (MHC class I binding score, peptide exchange yield). “+++” (>50 = +++)

For 326 (FLPEALDFV; listed as Homo sapiens) [compound 326] , write its Peptide exchange (MHC class I binding score, peptide exchange yield). “+++” (>50 = +++)

---

SYSTEM: HLA-A*02:01 (Homo sapiens, UniProt P04439, D140Y/D185E/D98H/E176V/E277Q/G131W/G231S/I119V/I121R/I166T/I218V/L300P/L318F/N151K/N90K/P208A/P217A/Q86G/Q94H/R138H/R169H/T345S)
TEST NAME: MHC binding assay (UV-ligand exchange, anti-β2m ELISA, peptide exchange yield)
CONDITION LABEL: binding to HLA-A*02:01
OBSERVED PROPERTY: Peptide exchange (MHC class I binding score, peptide exchange yield)

Example entries and their recorded answers appear below.
269 (RVLEVGALQAV; listed as Homo sapiens) [compound 269]    “++” (>20% = ++)
349 (SLTEYLQNV; listed as Homo sapiens) [compound 349]    “++++” (>75% = ++++)
428 (KLGHTDILVGV; listed as Homo sapiens) [compound 428]    “++” (>20% = ++)
136 (YLADPSNLFVV; listed as Homo sapiens) [compound 136]    “+++” (>50 = +++)
26 (ALLELAEEL; listed as Homo sapiens) [compound 26]    “+++” (>50 = +++)

For 84 (VTFGEKLLGV; listed as Homo sapiens) [compound 84] , write its Peptide exchange (MHC class I binding score, peptide exchange yield). “++” (>20% = ++)

For 569 (KLVDRTWTL; listed as Homo sapiens) [compound 569] , write its Peptide exchange (MHC class I binding score, peptide exchange yield). “+++” (>50 = +++)

For 99 (ALVSKGLATV; listed as Homo sapiens) [compound 99] , write its Peptide exchange (MHC class I binding score, peptide exchange yield). “++” (>20% = ++)

For 235 (YLNDLHEVLL; listed as Homo sapiens) [compound 235] , write its Peptide exchange (MHC class I binding score, peptide exchange yield). “++++” (>75% = ++++)

For 376 (AMFESSQNVLL; listed as Homo sapiens) [compound 376] , write its Peptide exchange (MHC class I binding score, peptide exchange yield). “++” (>20% = ++)

For 75 (GLLEVMVNL; listed as Homo sapiens) [compound 75] , write its Peptide exchange (MHC class I binding score, peptide exchange yield). “+++” (>50 = +++)

For 126 (VLAYFLPEA; listed as Homo sapiens) [compound 126] , write its Peptide exchange (MHC class I binding score, peptide exchange yield). “++++” (>75% = ++++)

For 351 (SLIPNLRNV; listed as Homo sapiens) [compound 351] , write its Peptide exchange (MHC class I binding score, peptide exchange yield). “+++” (>50 = +++)

For 29 (KMLGIPISNILMV; listed as Homo sapiens) [compound 29] , write its Peptide exchange (MHC class I binding score, peptide exchange yield). “+++” (>50 = +++)

For 57 (TLAELQPPVQL; listed as Homo sapiens) [compound 57] , write its Peptide exchange (MHC class I binding score, peptide exchange yield). “+++” (>50 = +++)

---

SYSTEM: HLA-A*02:01 (Homo sapiens, UniProt P04439, D140Y/D185E/D98H/E176V/E277Q/G131W/G231S/I119V/I121R/I166T/I218V/L300P/L318F/N151K/N90K/P208A/P217A/Q86G/Q94H/R138H/R169H/T345S)
TEST NAME: MHC binding assay (UV-ligand exchange, anti-β2m ELISA, peptide exchange yield)
CONDITION LABEL: binding to HLA-A*02:01
OBSERVED PROPERTY: Peptide exchange (MHC class I binding score, peptide exchange yield)

Example entries and their recorded answers appear below.
22 (IMEENPGIFAV; listed as Homo sapiens) [compound 22]    “+++” (>50 = +++)
181 (LLWAGTAFQV; listed as Homo sapiens) [compound 181]    “+++” (>50 = +++)
430 (HLYSSIEHLTT; listed as Homo sapiens) [compound 430]    “+++” (>50 = +++)
115 (AIAGAGILYGV; listed as Homo sapiens) [compound 115]    “++” (>20% = ++)
341 (SQIALNEKLVNL; listed as Homo sapiens) [compound 341]    “+++” (>50 = +++)

For 372 (TMLLNIPLV; listed as Homo sapiens) [compound 372] , write its Peptide exchange (MHC class I binding score, peptide exchange yield). “++” (>20% = ++)

For 618 (VLFDSESIGIYV; listed as Homo sapiens) [compound 618] , write its Peptide exchange (MHC class I binding score, peptide exchange yield). “+++” (>50 = +++)

For 490 (FLLQHVQEL; listed as Homo sapiens) [compound 490] , write its Peptide exchange (MHC class I binding score, peptide exchange yield). “+++” (>50 = +++)

For 242 (AIAYILQGV; listed as Homo sapiens) [compound 242] , write its Peptide exchange (MHC class I binding score, peptide exchange yield). “++” (>20% = ++)

For 401 (ILLDDTGLAYI; listed as Homo sapiens) [compound 401] , write its Peptide exchange (MHC class I binding score, peptide exchange yield). “+++” (>50 = +++)

For 605 (KLYEAVPQL; listed as Homo sapiens) [compound 605] , write its Peptide exchange (MHC class I binding score, peptide exchange yield). “+++” (>50 = +++)

For 427 (ALLPLSPYL; listed as Homo sapiens) [compound 427] , write its Peptide exchange (MHC class I binding score, peptide exchange yield). “+++” (>50 = +++)

For 121 (GVVDPRAISVL; listed as Homo sapiens) [compound 121] , write its Peptide exchange (MHC class I binding score, peptide exchange yield). “++” (>20% = ++)

For 231 (FLSPQQPPLLL; listed as Homo sapiens) [compound 231] , write its Peptide exchange (MHC class I binding score, peptide exchange yield). “++” (>20% = ++)
